Below, each of the compounds is paired with its reported CC50 value.
- protocol_notes: Cytotoxicity against rat L6 cells
- Format: cell-based
- condition_parameters: read-out: TD50 (the source's name)
value_type: CC50

1. COC(=O)CCCNC(=O)CC[C@@H](C)[C@H]1CC[C@H]2[C@@H]3CC=C4C[C@@H](OC(C)=O)CC[C@]4(C)[C@H]3CC[C@]12C; > 174 µM
2. CC(=O)O[C@H]1CC[C@@]2(C)C(=CC[C@H]3[C@@H]4CC[C@H]([C@H](C)CCC(=O)N(C)C)[C@@]4(C)CC[C@@H]32)C1; > 202 µM
3. COC(=O)CCCCCNC(=O)CC[C@@H](C)[C@H]1CC[C@H]2[C@@H]3CC=C4C[C@@H](OC(C)=O)CC[C@]4(C)[C@H]3CC[C@]12C; > 165 µM

The origin of these recorded values is ChEMBL document CHEMBL1153496.
